Assay: ATG_GLI_CIS: Attagene CIS-FACTORIAL HepG2 Assay for human Zinc Finger Protein GLI1 (AID 2282945)
Conditions: HepG2, Attagene cis-factorial reporter mRNA, GLI element; actives raise or lower the signal
The source made the active and inactive calls. How the source made its calls: active means hit-call score of the fitted dose curve at least 0.9, where 1 is the maximum; inactive means score below 0.9.
Hi! Could you answer with just one of these? T for active, F for inactive

Observe how each entry below is paired with its result.
Compound | Group Label
O=C(Nc1ccccc1)c1cc([N+](=O)[O-])ccc1Cl | F
CCCCCNCCCCC | F
CCc1ccc(C=O)cc1 | F
NC(=O)c1ccccc1Cl | T
CC1CCC(C(C)CS)CC1S (centres undefined) | F

Tell me the assay call for Cc1ccc(C(=O)c2cc(O)c(O)c([N+](=O)[O-])c2)cc1 please.
F

And for CC(C)c1ccc(C(C)C)cc1 ?
F

And for O=C1CCc2ccccc2O1 ?
F

And for C=C(C)C(=O)OCCOC(=O)CC(C)=O ?
F

====

Read-out: Collagen I, COL1A1 (gene 1277)
Assay: BSK_MyoF_CollagenI: BioMAP Diversity Plus: MyoF Assay for Collagen I Biomarker Activity (AID 2284238)
Settings: primary human lung fibroblasts
Activity calls are given as the source filed them. How the source made its calls: active means hit-call score of the fitted dose curve at least 0.9, where 1 is the maximum; inactive means score below 0.9.
Hi! Could you answer with just one of these? active, inactive

Compound | Group Label
CC(C)(COC(=O)c1ccccc1)COC(=O)c1ccccc1 | inactive
CC1CCC(C(C)CS)CC1S (centres undefined) | active
CCc1c(C)cc(N)c(CC)c1N | inactive

Tell me the assay call for c1ccc2c(c1)c1cccc3ccc4cccc2c4c31 please.
inactive

====

Target: human Peroxisome Proliferator-activated Receptor delta (PPARd), PPARD (gene 5467) (UniProt Q03181)
Sequence (Q03181 whole entry, looked up): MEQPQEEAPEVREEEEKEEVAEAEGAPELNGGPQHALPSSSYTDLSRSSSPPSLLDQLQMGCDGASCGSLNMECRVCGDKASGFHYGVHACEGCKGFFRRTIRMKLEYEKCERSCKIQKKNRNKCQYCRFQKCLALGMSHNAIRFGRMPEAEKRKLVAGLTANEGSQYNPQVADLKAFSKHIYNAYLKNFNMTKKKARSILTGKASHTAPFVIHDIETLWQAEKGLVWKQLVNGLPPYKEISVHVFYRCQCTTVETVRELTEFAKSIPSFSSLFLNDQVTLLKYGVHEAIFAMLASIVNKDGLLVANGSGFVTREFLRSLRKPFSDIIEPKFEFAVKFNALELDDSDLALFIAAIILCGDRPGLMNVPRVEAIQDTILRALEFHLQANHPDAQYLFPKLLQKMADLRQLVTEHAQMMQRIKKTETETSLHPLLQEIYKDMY
Test: ATG_PPARd_TRANS: Attagene TRANS-FACTORIAL HepG2 Assay for human Peroxisome Proliferator-activated Receptor delta (PPARd) (AID 2283002)
Results filed as inconclusive are left out. Active and inactive are the calls of the source. The calls were made as follows: active = hit-call score of the fitted dose curve at least 0.9, where 1 is the maximum; inconclusive = response in the unintended direction; inactive = score below 0.9.
Hi! Could you answer with just one of these? YES = active, NO = inactive

Observe how each entry below is paired with its result.
Molecule | Group Label
O=c1oc(=O)c2cc3c(=O)oc(=O)c3cc12 | NO
CCCCCCCCCCCCSC | NO

Tell me the assay call for Clc1ccc2c(c1)C(N1CCNCC1)=Nc1ccccc1O2 please.
YES

And for Clc1sc(Cl)c(Cl)c1Cl ?
NO

====

Assay: ATG_RORE_CIS: Attagene CIS-FACTORIAL HepG2 Assay for human RAR-related Orphan Receptor Element (RORE) (AID 2282959)
Conditions: HepG2 Attagene cis-factorial RORE reporter, mRNA; actives raise or lower the signal
Procedure: ATG_CIS is a cell-based, multiplexed-readout assay that uses HepG2, a human liver cell line, with measurements taken at 24 hours after chemical dosing in a 24-well plate.ATG_RORE_CIS is one of 52 assay component(s) measured or calculated from the ATG_CIS assay. […] This assay endpoint, ATG_RORE_CIS, was analyzed with bidirectional fitting relative to DMSO as the negative control and baseline of activity. […]
Active and inactive are the calls of the source. Rule for the calls: active = hit-call score of the fitted dose curve at least 0.9, where 1 is the maximum; inactive = score below 0.9.
Hi! Could you answer with just one of these? active, inactive

Observe how each entry below is paired with its result.
Molecule | Group Label
C=C(C)[C@@H]1CC[C@@H](C)C[C@@H]1O | inactive
COc1nc(C)nc(N)n1 | inactive
CC(C)OP(=O)(CP(=O)(OC(C)C)OC(C)C)OC(C)C | inactive
S=C(S)NCCNC(=S)S | inactive
NC(=O)c1ccccc1Cl | inactive
CC(C)c1ccc(C(C)C)cc1 | inactive
CCCCCCCCCCCCCCCCCC(=O)OCC(CC)CCCC (stereo not given) | inactive
CCCCc1ccc(N)cc1 | inactive
Cc1cccc(C)c1C | inactive
C#C[C@]1(O)CC[C@H]2[C@@H]3CCC4=Cc5oncc5C[C@]4(C)[C@H]3CC[C@@]21C | inactive

Could you now look at the following molecule, please?
Tell me the assay call for Cc1ccc2n[nH]nc2c1 please.
inactive
